Where a name gives a salt, the structure may show the parent alone.
The following compounds have recorded log10 IC50 on UniProtKB P37136.
The common logarithm of IC50 in µM is what is listed.

{"columns": ["compound", "number"],
 "data": [
  ["CCCN1CCc2cc(C(=O)CCC3CCN(Cc4ccccc4)CC3)ccc21", -1.66],
  ["O=C(CCC1CCN(Cc2ccccc2)CC1)c1ccc2c(c1)CCCCN2", -0.90],
  ["Cc1cccc(CN2CCC(CCC(=O)c3ccc4c(c3)CCN4)CC2)c1", -1.30],
  ["CC(=O)N1CCCc2cc(C(=O)CCC3CCN(Cc4ccccc4)CC3)ccc21 [Example 16, fumarate]", -1.85],
  ["O=C(CCC1CCN(Cc2ccccc2)CC1)c1ccc2c(c1)NCCCC2", -0.99],
  ["CN1CCCc2cc(C(=O)CCC3CCN(Cc4ccccc4)CC3)ccc21 [Example 8-A, fumarate]", -1.62],
  ["O=C(CCC1CCN(Cc2ccccc2)CC1)c1ccc2c(c1)CCNCC2 [Example 22, dihydrochloride]", -2.12]
]}

Req: Given the entry CN1CCCc2ccc(C(=O)CCC3CCN(Cc4ccccc4)CC3)cc21 [Example 8-B, fumarate] , what log10 IC50 was observed with UniProtKB P37136?
Resp: -1.44

###

Counter-ions that a name gives are not always drawn.
The following molecules have recorded pIC50 on Acetylcholinesterase (Rattus norvegicus, UniProt P37136).
Sequence (P37136 32-614): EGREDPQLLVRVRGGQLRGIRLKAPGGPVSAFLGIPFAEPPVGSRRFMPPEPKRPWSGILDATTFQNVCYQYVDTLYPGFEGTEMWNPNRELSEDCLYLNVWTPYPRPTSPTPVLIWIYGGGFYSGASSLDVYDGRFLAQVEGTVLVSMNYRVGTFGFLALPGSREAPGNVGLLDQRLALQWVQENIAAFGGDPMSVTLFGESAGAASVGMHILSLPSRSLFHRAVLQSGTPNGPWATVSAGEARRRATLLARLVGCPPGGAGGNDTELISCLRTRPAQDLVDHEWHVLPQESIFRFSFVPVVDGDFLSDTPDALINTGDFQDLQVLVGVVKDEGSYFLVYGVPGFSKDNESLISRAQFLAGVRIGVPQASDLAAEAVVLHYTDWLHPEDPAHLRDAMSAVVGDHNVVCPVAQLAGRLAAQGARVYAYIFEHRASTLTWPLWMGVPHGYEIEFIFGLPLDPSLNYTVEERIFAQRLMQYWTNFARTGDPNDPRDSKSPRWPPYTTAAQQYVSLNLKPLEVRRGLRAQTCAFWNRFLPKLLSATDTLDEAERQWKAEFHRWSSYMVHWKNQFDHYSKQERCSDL
When answering, recall that pIC50 equals minus log10 of the concentration in mol/L, and write that number alone.

Some entries whose results are on file:
{"columns": ["molecule", "pIC50"],
 "data": [
  ["O=C(CCC1CCN(Cc2ccccc2)CC1)c1ccc2c(c1)CCCN2Cc1ccccc1 [Example 3, dihydrochloride]", 6.92],
  ["O=C(CCC1CCN(Cc2ccccc2)CC1)c1ccc2c(c1)CCCN2 [Example 6-A, fumarate]", 7.27],
  ["O=C(CCC1CCN(Cc2ccccc2)CC1)c1ccc2c(c1)NCC2 [Example 25, fumarate]", 6.95]
]}

API: the following record is the query input.
Req: Given the entry CN1CCCCc2ccc(C(=O)CCC3CCN(Cc4ccccc4)CC3)cc21 [Example 19-17] , what pIC50 was observed with Acetylcholinesterase (Rattus norvegicus, UniProt P37136)?
Resp: 7.09

###

Quick reference: pIC50 of the listed items.
- system_tested: Acetylcholinesterase (Rattus norvegicus, UniProt P37136)
Structures can show the parent of a compound that is named as a salt.
When answering, recall that pIC50 equals minus log10 of the concentration in mol/L, and write that number alone.

Req: Given the entry CN1CCCc2cc(C(=O)CCC3CCN(Cc4ccccc4)CC3)ccc21 [Example 4, dihydrochloride] , what pIC50 was observed with Acetylcholinesterase (Rattus norvegicus, UniProt P37136)?
Resp: 8.00

Req: Given the entry O=C(CCC1CCN(Cc2cccc(F)c2)CC1)c1ccc2c(c1)CCN2 , what pIC50 was observed with Acetylcholinesterase (Rattus norvegicus, UniProt P37136)?
Resp: 7.80

Req: Given the entry O=C(CCC1CCN(Cc2ccccc2)CC1)c1ccc2c(c1)CCCN2 [Example 2, dihydrochloride] , what pIC50 was observed with Acetylcholinesterase (Rattus norvegicus, UniProt P37136)?
Resp: 7.85

Req: Given the entry CN1CCc2cc(C(=O)CCC3CCN(Cc4ccccc4)CC3)ccc21 [Example 14, fumarate] , what pIC50 was observed with Acetylcholinesterase (Rattus norvegicus, UniProt P37136)?
Resp: 8.00

Req: Given the entry CCCCN1CCc2cc(C(=O)CCC3CCN(Cc4ccccc4)CC3)ccc21 , what pIC50 was observed with Acetylcholinesterase (Rattus norvegicus, UniProt P37136)?
Resp: 7.54

Req: Given the entry O=C(CCC1CCN(Cc2ccccc2)CC1)c1ccc2c(c1)CCN2 [Example 13, fumarate] , what pIC50 was observed with Acetylcholinesterase (Rattus norvegicus, UniProt P37136)?
Resp: 7.70

Req: Given the entry O=C(CCC1CCN(Cc2ccccc2)CC1)c1ccc2c(c1)NCCCCC2 [Example 27, fumarate] , what pIC50 was observed with Acetylcholinesterase (Rattus norvegicus, UniProt P37136)?
Resp: 6.90

Req: Given the entry O=C(CCC1CCN(Cc2cccc(F)c2)CC1)c1ccc2c(c1)NCCCC2 , what pIC50 was observed with Acetylcholinesterase (Rattus norvegicus, UniProt P37136)?
Resp: 6.84

###

Where a name gives a salt, the structure may show the parent alone.
The following compounds have recorded pIC50 on Acetylcholinesterase (Rattus norvegicus).
When answering, recall that pIC50 equals minus log10 of the concentration in mol/L, and write that number alone.

{"columns": ["compound", "pIC50"],
 "data": [
  ["CN1CCc2ccc(C(=O)CCC3CCN(Cc4ccccc4)CC3)cc2CC1 [Example 23, dihydrochloride]", 8.19],
  ["CCCCCN1CCc2cc(C(=O)CCC3CCN(Cc4ccccc4)CC3)ccc21", 7.33],
  ["CCN1CCc2cc(C(=O)CCC3CCN(Cc4ccccc4)CC3)ccc21", 7.96],
  ["O=C(CCC1CCN(Cc2ccccc2)CC1)c1ccc2c(c1)CCCN2Cc1ccccc1 [Example 10, fumarate]", 6.80]
]}

Req: So what's the measured pIC50 for this one? O=C(CCC1CCN(Cc2ccccc2)CC1)c1ccc2c(c1)NCCC2 [Example 6-B, fumarate]
Resp: 7.27

Req: So what's the measured pIC50 for this one? O=C(CCC1CCN(Cc2ccccc2)CC1)c1ccc2c(c1)CCO2 [Example 21, hydrochloride]
Resp: 7.55

Req: So what's the measured pIC50 for this one? O=C(CCC1CCN(Cc2ccccc2)CC1)c1ccc2c(c1)CCN2Cc1ccccc1 [Example 15, fumarate]
Resp: 7.17

Req: So what's the measured pIC50 for this one? O=C(CCC1CCN(Cc2ccccc2)CC1)c1ccc2c(c1)CCN2CCc1ccccc1
Resp: 7.55
